Tested on: Staphylococcus epidermidis
Assay: In vitro antimicrobial activity against Staphylococcus epidermidis EPI1
Type: functional
Each entry below lists one item and its recorded MIC value.
parameter: MIC

[[record]]
smiles_data = "CC[C@H]1OC(=O)C[C@@H](O)[C@H](C)[C@@H](O[C@@H]2O[C@H](C)[C@@H](O[C@H]3C[C@@](C)(O)[C@@H](O)[C@H](C)O3)[C@H](N(C)C)[C@H]2O)[C@@H](C)C[C@@H](C)C(=O)/C=C/C(C)=C/[C@@H]1CO[C@@H]1O[C@H](C)[C@@H](O)[C@@H](OC)[C@H]1OC"
assay_value = "1 µg/mL"

[[record]]
smiles_data = "CC[C@H]1OC(=O)C[C@@H](O)[C@H](C)[C@@H](O[C@@H]2O[C@H](C)[C@@H](O[C@H]3C[C@@](C)(O)[C@@H](O)[C@H](C)O3)[C@H](N(C)C)[C@H]2O)[C@@H](CCOc2ccc(C(=O)c3ccccc3)cc2)C[C@@H](C)C(=O)/C=C/C(C)=C/[C@@H]1CO[C@@H]1O[C@H](C)[C@@H](O)[C@@H](OC)[C@H]1OC"
assay_value = "2 µg/mL"


* * *

System: Haemophilus influenzae
Test: In vitro antimicrobial activity against Haemophilus influenzae.
Format: functional
parameter: MIC

[[record]]
smiles_data = "CC[C@H]1OC(=O)C[C@@H](O)[C@H](C)[C@@H](O[C@@H]2O[C@H](C)[C@@H](O)[C@H](N(C)C)[C@H]2O)[C@@H](CCN2CCCCCCC2)C[C@@H](C)C(=O)/C=C/C(C)=C/[C@@H]1CO[C@@H]1O[C@H](C)[C@@H](O)[C@@H](OC)[C@H]1OC"
assayed_target = "Haemophilus influenzae"
assay_value = "8 µg/mL"

[[record]]
smiles_data = "CC[C@H]1OC(=O)C[C@@H](O)[C@H](C)[C@@H](O[C@@H]2O[C@H](C)[C@@H](O[C@H]3C[C@@](C)(O)[C@@H](O)[C@H](C)O3)[C@H](N(C)C)[C@H]2O)[C@@H](CCNCCc2ccccc2)C[C@@H](C)C(=O)/C=C/C(C)=C/[C@@H]1CO[C@@H]1O[C@H](C)[C@@H](O)[C@@H](OC)[C@H]1OC"
assayed_target = "Haemophilus influenzae"
assay_value = "64 µg/mL"

[[record]]
smiles_data = "CC[C@H]1C[C@@H](C)C(=O)/C=C/C(C)=C/[C@H](CO)[C@@H](CC)OC(=O)C[C@@H](O)[C@H](C)[C@H]1O[C@@H]1O[C@H](C)[C@@H](O[C@H]2C[C@@](C)(O)[C@@H](O)[C@H](C)O2)[C@H](N(C)C)[C@H]1O"
assayed_target = "Haemophilus influenzae"
assay_value = "> 128 µg/mL"

[[record]]
smiles_data = "CC[C@H]1OC(=O)C[C@@H](O)[C@H](C)[C@@H](O[C@@H]2O[C@H](C)[C@@H](O)[C@H](N(C)C)[C@H]2O)[C@@H](CCO)C[C@@H](C)C(=O)/C=C/C(C)=C/[C@@H]1C"
assayed_target = "Haemophilus influenzae"
assay_value = "32 µg/mL"


* * *

System: Staphylococcus aureus
Assay: In vitro antimicrobial activity against Staphylococcus aureus X1
Format: functional
parameter: MIC (mg/L)

[[record]]
compound = "CC[C@H]1OC(=O)C[C@@H](O)[C@H](C)[C@@H](O[C@@H]2O[C@H](C)[C@@H](O[C@H]3C[C@@](C)(O)[C@@H](O)[C@H](C)O3)[C@H](N(C)C)[C@H]2O)[C@@H](CCF)C[C@@H](C)C(=O)/C=C/C(C)=C/[C@@H]1CO[C@@H]1O[C@H](C)[C@@H](O)[C@@H](OC)[C@H]1OC"
parameter = "MIC"
unit_string = "mg/L"
readout_qualifier = "="
assay_value = 1

[[record]]
compound = "CC[C@H]1OC(=O)C[C@@H](O)[C@H](C)[C@@H](O[C@@H]2O[C@H](C)[C@@H](O)[C@H](N(C)C)[C@H]2O)[C@@H](CCO)C[C@@H](C)C(=O)/C=C/C(C)=C/[C@@H]1CO[C@@H]1O[C@H](C)[C@@H](O)[C@@H](OC)[C@H]1OC"
parameter = "MIC"
unit_string = "mg/L"
readout_qualifier = "="
assay_value = 2

[[record]]
compound = "CC[C@H]1OC(=O)C[C@@H](O)[C@H](C)[C@@H](O[C@@H]2O[C@H](C)[C@@H](O[C@H]3C[C@@](C)(O)[C@@H](O)[C@H](C)O3)[C@H](N(C)C)[C@H]2O)[C@@H](C)C[C@@H](C)C(=O)/C=C/C(C)=C/[C@@H]1CO"
parameter = "MIC"
unit_string = "mg/L"
readout_qualifier = "="
assay_value = 64

[[record]]
compound = "CC[C@H]1OC(=O)C[C@@H](O)[C@H](C)[C@@H](O[C@@H]2O[C@H](C)[C@@H](O)[C@H](N(C)C)[C@H]2O)[C@@H](CCN2C(=O)c3ccccc3C2=O)C[C@@H](C)C(=O)/C=C/C(C)=C/[C@@H]1C"
parameter = "MIC"
unit_string = "mg/L"
readout_qualifier = "="
assay_value = 8

[[record]]
compound = "CC[C@H]1OC(=O)C[C@@H](O)[C@H](C)[C@@H](O[C@@H]2O[C@H](C)[C@@H](O)[C@H](N(C)C)[C@H]2O)[C@@H](CCOS(=O)c2ccccc2)C[C@@H](C)C(=O)/C=C/C(C)=C/[C@@H]1CO[C@@H]1O[C@H](C)[C@@H](O)[C@@H](OC)[C@H]1OC (stereo not given in full)"
parameter = "MIC"
unit_string = "mg/L"
readout_qualifier = "="
assay_value = 0.25

[[record]]
compound = "CC[C@H]1OC(=O)C[C@@H](O)[C@H](C)[C@@H](O[C@@H]2O[C@H](C)[C@@H](O)[C@H](N(C)C)[C@H]2O)[C@@H](CC=O)C[C@@H](C)C(=O)/C=C/C(C)=C/[C@@H]1C"
parameter = "MIC"
unit_string = "mg/L"
readout_qualifier = "="
assay_value = 0.25

[[record]]
compound = "CC[C@H]1OC(=O)C[C@@H](O)[C@H](C)[C@@H](O[C@@H]2O[C@H](C)[C@@H](O[C@H]3C[C@@](C)(O)[C@@H](O)[C@H](C)O3)[C@H](N(C)C)[C@H]2O)[C@@H](CCO)C[C@@H](C)C(=O)/C=C/C(C)=C/[C@@H]1CO"
parameter = "MIC"
unit_string = "mg/L"
readout_qualifier = ">"
assay_value = 128

[[record]]
compound = "CC[C@H]1OC(=O)C[C@@H](O)[C@H](C)[C@@H](O[C@@H]2O[C@H](C)[C@@H](O)[C@H](N(C)C)[C@H]2O)[C@@H](CCOc2ccc([N+](=O)[O-])cc2)C[C@@H](C)C(=O)/C=C/C(C)=C/[C@@H]1CO[C@@H]1O[C@H](C)[C@@H](O)[C@@H](OC)[C@H]1OC"
parameter = "MIC"
unit_string = "mg/L"
readout_qualifier = "="
assay_value = 0.5

[[record]]
compound = "CC[C@H]1OC(=O)C[C@@H](O)[C@H](C)[C@@H](O[C@@H]2O[C@H](C)[C@@H](O)[C@H](N(C)C)[C@H]2O)[C@@H](CCOc2ccc(CO)cc2)C[C@@H](C)C(=O)/C=C/C(C)=C/[C@@H]1CO[C@@H]1O[C@H](C)[C@@H](O)[C@@H](OC)[C@H]1OC"
parameter = "MIC"
unit_string = "mg/L"
readout_qualifier = "="
assay_value = 0.5

[[record]]
compound = "CC[C@H]1OC(=O)C[C@@H](O)[C@H](C)[C@@H](O[C@@H]2O[C@H](C)[C@@H](O)[C@H](N(C)C)[C@H]2O)[C@@H](CCOc2cc(Cl)cc(Cl)c2)C[C@@H](C)C(=O)/C=C/C(C)=C/[C@@H]1CO[C@@H]1O[C@H](C)[C@@H](O)[C@@H](OC)[C@H]1OC"
parameter = "MIC"
unit_string = "mg/L"
readout_qualifier = "="
assay_value = 0.25

[[record]]
compound = "CC[C@H]1OC(=O)C[C@@H](O)[C@H](C)[C@@H](O[C@@H]2O[C@H](C)[C@@H](O[C@H]3C[C@@](C)(O)[C@@H](O)[C@H](C)O3)[C@H](N(C)C)[C@H]2O)[C@@H](CCOc2ccc([N+](=O)[O-])cc2)C[C@@H](C)C(=O)/C=C/C(C)=C/[C@@H]1CO[C@@H]1O[C@H](C)[C@@H](O)[C@@H](OC)[C@H]1OC"
parameter = "MIC"
unit_string = "mg/L"
readout_qualifier = "="
assay_value = 1

[[record]]
compound = "CC[C@H]1OC(=O)C[C@@H](O)[C@H](C)[C@@H](O[C@@H]2O[C@H](C)[C@@H](O)[C@H](N(C)C)[C@H]2O)[C@@H](C)C[C@@H](C)C(=O)/C=C/C(C)=C/[C@@H]1CO"
parameter = "MIC"
unit_string = "mg/L"
readout_qualifier = "="
assay_value = 4

[[record]]
compound = "CC[C@H]1OC(=O)C[C@@H](O)[C@H](C)[C@@H](O[C@@H]2O[C@H](C)[C@@H](O[C@H]3C[C@@](C)(O)[C@@H](O)[C@H](C)O3)[C@H](N(C)C)[C@H]2O)[C@@H](CCOc2ccc(C(=O)c3ccccc3)cc2)C[C@@H](C)C(=O)/C=C/C(C)=C/[C@@H]1CO[C@@H]1O[C@H](C)[C@@H](O)[C@@H](OC)[C@H]1OC"
parameter = "MIC"
unit_string = "mg/L"
readout_qualifier = "="
assay_value = 1

[[record]]
compound = "CC[C@H]1OC(=O)C[C@@H](O)[C@H](C)[C@@H](O[C@@H]2O[C@H](C)[C@@H](O)[C@H](N(C)C)[C@H]2O)[C@@H](CCOc2ccccc2)C[C@@H](C)C(=O)/C=C/C(C)=C/[C@@H]1CO[C@@H]1O[C@H](C)[C@@H](O)[C@@H](O)[C@H]1OC"
parameter = "MIC"
unit_string = "mg/L"
readout_qualifier = "="
assay_value = 0.25

[[record]]
compound = "CC[C@H]1OC(=O)C[C@@H](O)[C@H](C)[C@@H](O[C@@H]2O[C@H](C)[C@@H](O)[C@H](N(C)C)[C@H]2O)[C@@H](CCOC(C)=O)C[C@@H](C)C(=O)/C=C/C(C)=C/[C@@H]1CO[C@@H]1O[C@H](C)[C@@H](O)[C@@H](OC)[C@H]1OC"
parameter = "MIC"
unit_string = "mg/L"
readout_qualifier = "="
assay_value = 0.5

